// provenance: paper PMC9005681

EXPERIMENTAL SYSTEM: cloned human or rodent CNS receptors, channels, and transporters (PDSP panel) (Homo sapiens)
Construct: expressed in transfected cells
PROCEDURE DETAILS: PDSP GPCR panel primary binding assays at 10 μM
TEST CONDITIONS: Receptor 5-HT1B; primary assay, 10 μM
Description: GPCR panel: Screening against the receptors within the PDSP panel offers an assessment of off-target pharmacological activity at cloned human or rodent CNS receptors, channels, and transporters that could confound CNS-related phenotypes. A total of 46–47 primary binding assays were run in quadruplicate on these compounds at 10 μM, with follow-up secondary binding assays in 11-point dose-response in triplicate for select compounds versus select receptors. […]
Record form. Attribute: Inhibition 4. Fill in for each entry.
Expressed in %, but write only the number.

Prompt: Value lookup for Inhibition 4; key = Cl.NC(=O)c1cnc(N[C@@H]2CCCC[C@@H]2N)nc1Nc1cccc(-n2nccn2)c1 [UNC10302682A, P505-15 (PRT06207 HCl)]
Completion: 32.24

Prompt: Try this compound too: O=c1oc2ccccc2cc1-c1cn2cc(Cc3ccc(F)cc3)sc2n1 [UNC10302680A, iMDK]
Completion: -13.17

Prompt: Would you kindly repeat that for CCCCNc1ncc2c(-c3ccc(CN4CCN(C)CC4)cc3)cn([C@H]3CC[C@H](O)CC3)c2n1 [UNC2025C, UNC2025] ?
Completion: 12.97

Prompt: Now consider c1cn2cc(-c3ccc4cn[nH]c4c3)nc(Nc3ccc(N4CCOCC4)cc3)c2n1 [UNC10302678A, Entospletinib (GS-9973)] .
Completion: -8.65

====

EXPERIMENTAL SYSTEM: cloned human or rodent CNS receptors, channels, and transporters (PDSP panel) (Homo sapiens)
Construct: expressed in transfected cells
PROCEDURE DETAILS: PDSP GPCR panel primary binding assays at 10 μM
TEST CONDITIONS: KOR; primary assay, replicate 4
For each of the molecules below, state its Inhibition 4.
Express the result in % but write the number alone.

Prompt: GET /values?readout=Inhibition 4&item= CC(=O)N1CCC(NC(=O)NC23CC4CC(CC(C4)C2)C3)CC1 [UNC10302683A, AR9281]
Completion: -21.27

Prompt: Lookup CCC(=O)N1CCC(NC(=O)Nc2ccc(OC(F)(F)F)cc2)CC1 [UNC10302681A, TPPU]
Completion: -16.68

Prompt: For CNc1nc(C)nc(N[C@H]2CCC[C@@H](C(=O)NCc3ccc(C#N)cc3C(F)(F)F)C2)n1 [UNC10302679A, GSK2256294A] then?
Completion: -7.72

Prompt: Moving on to O=C(NC1CC1)C(=O)C(Cc1ccccc1)NC(=O)[C@H]1CCC(=O)N1Cc1ccccc1 (stereo partly shown) [UNC10302676A, ABT-957 (Alicapistat)]
Completion: -30.23

====

EXPERIMENTAL SYSTEM: cloned human or rodent CNS receptors, channels, and transporters (PDSP panel) (Homo sapiens, UniProt P41145)
Construct: expressed in transfected cells
Sequence (P41145 whole entry): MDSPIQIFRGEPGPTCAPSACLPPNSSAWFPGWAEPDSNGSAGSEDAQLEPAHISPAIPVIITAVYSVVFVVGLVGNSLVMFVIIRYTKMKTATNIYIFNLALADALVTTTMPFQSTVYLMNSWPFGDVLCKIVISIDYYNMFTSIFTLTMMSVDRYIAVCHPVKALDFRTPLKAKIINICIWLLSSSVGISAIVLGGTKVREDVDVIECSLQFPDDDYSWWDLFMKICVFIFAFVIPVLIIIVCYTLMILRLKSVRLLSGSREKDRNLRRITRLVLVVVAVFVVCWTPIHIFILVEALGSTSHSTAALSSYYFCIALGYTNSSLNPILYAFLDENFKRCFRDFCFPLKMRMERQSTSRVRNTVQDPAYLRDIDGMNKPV
PROCEDURE DETAILS: PDSP GPCR panel primary binding assays at 10 μM
TEST CONDITIONS: KOR; primary assay, replicate 2
Description: GPCR panel: Screening against the receptors within the PDSP panel offers an assessment of off-target pharmacological activity at cloned human or rodent CNS receptors, channels, and transporters that could confound CNS-related phenotypes. A total of 46–47 primary binding assays were run in quadruplicate on these compounds at 10 μM, with follow-up secondary binding assays in 11-point dose-response in triplicate for select compounds versus select receptors. […]
ASSAY READOUT: Inhibition 2 (%)
Record the value in %, omitting the unit from your answer.

Prompt: State the recorded Inhibition 2 for this entry: CC(=O)N1CCC(NC(=O)NC23CC4CC(CC(C4)C2)C3)CC1 [UNC10302683A, AR9281]
Completion: -29

Prompt: Queued: CCC(=O)N1CCC(NC(=O)Nc2ccc(OC(F)(F)F)cc2)CC1 [UNC10302681A, TPPU]
Completion: -17.46

Prompt: // same read-out, input: CNc1nc(C)nc(N[C@H]2CCC[C@@H](C(=O)NCc3ccc(C#N)cc3C(F)(F)F)C2)n1 [UNC10302679A, GSK2256294A]
Completion: -17.69

Prompt: What do you get for O=C(NC1CC1)C(=O)C(Cc1ccccc1)NC(=O)[C@H]1CCC(=O)N1Cc1ccccc1 (stereo partly shown) [UNC10302676A, ABT-957 (Alicapistat)] ?
Completion: -22.73
